Ref: PubChem BioAssay AID651813

Exercise: for every item that follows, state its recorded Potency.
TEST_TARGET: DNA dC->dU-editing enzyme APOBEC-3G (Homo sapiens) (UniProt Q9HC16)
Sequence (Q9HC16 whole entry, looked up): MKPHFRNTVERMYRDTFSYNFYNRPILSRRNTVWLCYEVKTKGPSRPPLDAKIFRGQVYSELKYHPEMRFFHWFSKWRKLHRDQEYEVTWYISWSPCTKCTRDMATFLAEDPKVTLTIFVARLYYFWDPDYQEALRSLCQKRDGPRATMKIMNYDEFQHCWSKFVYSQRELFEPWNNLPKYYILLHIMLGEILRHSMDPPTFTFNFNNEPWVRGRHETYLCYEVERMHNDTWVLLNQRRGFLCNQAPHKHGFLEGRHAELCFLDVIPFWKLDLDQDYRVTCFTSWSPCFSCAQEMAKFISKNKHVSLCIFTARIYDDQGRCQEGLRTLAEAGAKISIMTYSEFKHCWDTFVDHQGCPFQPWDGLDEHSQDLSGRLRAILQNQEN
ASSAY_DETAILS: qHTS for inhibitors of Vif-A3G interactions: Cherry picks counterscreen;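 also: potency is read from the fitted curve at half-maximal effect; hits raise yellow fluorescence by blocking Vif-driven A3G-eYFP degradation; nearly all actives have a fitted effect of over 70% in size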
TEST_CONDITIONS: HeLa A3G-eYFP + Vif (tagged APOBEC3G with the HIV-1 protein that degrades it), eYFP fluorescence, 24 h
Source text: The recent discovery and characterization of host restriction factors, which provide a potent defense to invading retroviruses, has provided new targets for antiviral drug development. […] In the presence of an inhibitor, it is expected that Vif will be unable to degrade A3G-eYFP and/or A3F-eYFP, resulting in an increase in yellow fluorescence. […]
Screen size: about 2,100 compounds; about 1,100 (52%) were called active. Another 27% or so got no clear call; they are omitted. So high a share suggests a set chosen from earlier hits. The list shows a part of the results.

Observe how each entry below is paired with its result.
Inquiry: Please look at this compound and report its Potency: O=C(NCCN1C(=O)S/C(=C\c2ccc(OC(F)F)cc2)C1=O)c1cnccn1
Reply text: 12.5 µM (active)

Inquiry: Return Potency for the following compound: COc1ccc(S(=O)(=O)Nc2cccc3ccccc23)cc1
Reply text: 5.17 µM (active)

Inquiry: Look up and report measured Potency for this entry: Clc1ccc2c(c1)C(C1=NCCN1)c1ccccc1CS2 (stereo unspecified)
Reply text: 3.14 µM (active)

Inquiry: Give the measured Potency for CN(C)c1ccc(/C=C/c2cnnc3ccccc23)cc1
Reply text: 20.6 µM (active)

Inquiry: Input COc1cccc2nccc(/C=C/c3ccc(N(C)C)cc3)c12 , output reported Potency.
Reply text: 18.4 µM (active)

Working through the 6 compounds below one at a time, give Potency for each.
1. COc1ccc(C2CC(c3ccncc3)=NN2c2ccc(S(N)(=O)=O)cc2)cc1 (stereo unspecified)
2. CN(C)c1ccc(/C=C/c2ccnc3cc(Cl)ccc23)cc1
3. Nc1ccccc1/C=C/c1ccnc2ccccc12
4. Cc1nnc(NC(=O)c2sc3nc(-c4cccs4)cc(C(F)(F)F)c3c2N)s1
5. Nc1c(C(=O)Nc2nccs2)sc2nc(-c3cccs3)cc(C(F)(F)F)c12
6. C=CCOc1ccc2nc(NC(=O)OC)[nH]c2c1

Reply text:
5.17 µM (active)
8.2 µM (active)
16.4 µM (active)
2.59 µM (active)
7.9 µM (active)
2.23 µM (active)
